Where do the numbers come from? From patent US20240116985A1.

# Tested on: full-length beta-Catenin (Uniprot ID P35222) (Homo sapiens (Human)) (UniProt P35222)
# Assay name: fluorescence polarization competition; peptide titrated against 10 nM full-length beta-catenin + 10 nM 5FAM-TCF4(10-53)
pIC50: −log10 of the molar value. Starred links: 1 amine or outer side, 2 acyl side, 3 side chain; linkers in the order of their positions; H or OH if unused. Positions of bridges follow the written chain, without caps; N, C: chain ends. Non-standard residues stand in square brackets, D forms with d. Primed or numbered codes have the meaning given here. *: point of attachment. PyrS2″ = (S)-3-amino-1-((pent-4-en-1-yloxy)carbonyl)pyrrolidine-3-carboxylic acid (stapling residue), C=CCCCOC(=O)N1CC[C@@](N[*:1])(C(=O)[*:2])C1; B5(4) = 2,2-bis(4-pentenyl)glycine = 2-amino-2-(pent-4-en-1-yl)hept-6-enoic acid (stitching residue), C=CCCCC(CCCC=C)(N[*:1])C(=O)[*:2]; B5(5) = 2,2-bis(4-pentenyl)glycine, 2-amino-2-(pent-4-en-1-yl)hept-6-enoic acid (stitching residue), C=CCCCC(CCCC=C)(N[*:1])C(=O)[*:2]; PyrS2 = (S)-3-amino-1-((pent-4-en-1-yloxy)carbonyl)pyrrolidine-3-carboxylic acid, C=CCCCOC(=O)N1CC[C@@](N[*:1])(C(=O)[*:2])C1; B5(3) = 2,2-bis(4-pentenyl)glycine (stitching residue), C=CCCCC(CCCC=C)(N[*:1])C(=O)[*:2]; AspSH = (S)-2-amino-4-mercapto-4-oxobutanoic acid, O=C(C[C@H](N[*:1])C(=O)[*:2])S[*:3]; B5 = 2-amino-2-(pent-4-en-1-yl)hept-6-enoic acid, C=CCCCC(CCCC=C)(N[*:1])C(=O)[*:2]; B6 = 2-amino-2-(hex-5-en-1-yl)oct-7-enoic acid, C=CCCCCC(CCCCC=C)(N[*:1])C(=O)[*:2]; Phe(3-CF3) = N[C@@H](Cc1cccc(C(F)(F)F)c1)C(=O)O; Phe(3-COOH) = N[C@@H](Cc1cccc(C(=O)O)c1)C(=O)O; Phe(4-CONH2) = NC(=O)c1ccc(C[C@H](N)C(=O)O)cc1; 2F3MeF = Cc1cccc(C[C@H](N[*:1])C(=O)[*:2])c1F; Phe(2-CF3) = N[C@@H](Cc1ccccc1C(F)(F)F)C(=O)O; Phe(3-Cl) = N[C@@H](Cc1cccc(Cl)c1)C(=O)O; Phe(4-Cl) = N[C@@H](Cc1ccc(Cl)cc1)C(=O)O; Phe(2-Cl) = N[C@@H](Cc1ccccc1Cl)C(=O)O; Bta = N[C@@H](Cc1csc2ccccc12)C(=O)O; Lys(iPr) = CC(C)NCCCC[C@H](N)C(=O)O; αAllylPro = C=CC[C@@]1(C(=O)O)CCCN1; tBuAla = CC(C)(C)C[C@H](N)C(=O)O; Cha = N[C@@H](CC1CCCCC1)C(=O)O; S8 = C=CCCCCCC[C@](C)(N)C(=O)O; Prolinol = OC[C@@H]1CCCN1*; hSer = N[C@@H](CCO)C(=O)O
Observable: pIC50

Ac-[αAllylPro]D[tBuAla][B5(3)]D[Phe(3-COOH)]QAFL[PyrS2″][2F3MeF][Phe(4-Cl)]A-NH2 (staple 1-4, 4-11) [I-2223]
7.30
Ac-[αAllylPro]D[tBuAla][B5(3)]DDAAFT[S8][Phe(2-Cl)][Bta][dT]-NH2 (staple 1-4, 4-11) [I-1092]
7.59
Ac-[αAllylPro]D[tBuAla][B5(3)]DEAAFT[S8][Phe(2-Cl)][Bta]Q-NH2 (staple 1-4, 4-11; also: later eluting staple isomer) [I-1089]
7.92
Ac-[αAllylPro]D[tBuAla][B5(3)]D[Phe(3-COOH)]QAFL[PyrS2″][2F3MeF][Phe(3-Cl)]A-NH2 (staple 1-4, 4-11) [I-2227]
7.33
Ac-[αAllylPro]D[tBuAla][B5(5)]DTAA[Phe(3-CF3)]T[PyrS2″]F[Bta]S-NH2 (staple 1-4, 4-11) [I-1268: Ac-PL3-Asp-Npg-B5-Asp-Thr-Ala-Ala-3F3MeF-Thr-PyrS2-Phe-BztA-Ser-NH2]
6.70

P = Ac-[αAllylPro][AspSH][tBuAla][B5]DDAAFN[PyrS2][Phe(2-Cl)][Bta]Q-NH2 (staple 1-4, 4-11; not fully specified) [I-1721]
Q = Ac-[αAllylPro]N[Cha][B5(5)]DQ[Lys(iPr)]A[Phe(4-CONH2)]N[PyrS2″]F[Bta][hSer]-NH2 (staple 1-4, 4-11) [I-2174]
R = Ac-[αAllylPro]D[tBuAla][B6]D[Phe(3-COOH)]QAFL[PyrS2][Phe(2-CF3)][Bta]A-NH2 (staple 1-4, 4-11) [I-2515]
S = Ac-[αAllylPro]D[tBuAla][B5(4)]DDAAFN[PyrS2″][Phe(2-Cl)][Bta]-Prolinol (staple 1-4, 4-11) [I-1084]
input: Provide the items ranked by increasing pIC50. Return the labels ranked in the requested order, please.
output: Q, R, S, P
(Q: 5.00, R: 5.79, S: 6.43, P: 6.86)
